experiment: Oral bioavailability in rat; type: ADME, organism-based; details: in vivo
property.label: bioavailability

{"compound.string": "CC1(C)N=C(N)N=C(N)N1OCCCOc1cc(Cl)c(Cl)cc1Cl", "property.label": "bioavailability", "recorded.result": "≤ 1%"}

====

assay: Toxicity in rat; conditions: in vivo

{"compound.string": "CN(C)C(=N)NC(=N)N", "measure.unit": "mg/kg", "LD50": 1000}

====

assay: Half life in po dosed human; type: ADME, organism-based; details: in vivo
property.label: half-life (h)

{"compound.string": "CC(C)NC(=N)NC(=N)Nc1ccc(Cl)c(Cl)c1", "property.label": "half-life", "recorded.result": 35}
